- Tested on: MRSA T144
- Type: cell-based, Staphylococcus aureus
- protocol conditions: T144
Where no end group is shown, it is not given here.
Listing: MIC, Control of selected sequences

residues | MIC, Control, µg/mL
GWKKFFKKWKHVWK [GK-4] | 4
GWKSFFKKFKHVWK [GK-3] | 8
GWGSFFKKAAHVGKHVGKAALTHYL [Pleu, Pleurocidin] | 2
GWKSFFKKWKHVWK [GK-2] | 8

----------
Entries annotated with measured MIC
- System: P. aeruginosa (VIM + tmexCD1-torJ1)
- protocol notes: microbe, parasite or virus in culture
- Type: cell-based
- protocol conditions: VIM + tmexCD1-torJ1
- Protocol: S. aureus ATCC 29213, E. coli ATCC 25922, S. enteritidis ATCC 13076 and A. baumannii ATCC 19609 were obtained from the American Type Culture Collection (ATCC). The remaining strains used in the experiment were all preserved strains in our laboratory. All strains were cultured in nutrient broth overnight to the logarithmic phase at 37 °C prior to each experiment. The MICs of all drugs were determined by micro-broth dilution method according to CLSI 2018 guidelines. […]
Where no end group is shown, it is not given here.

residues | MIC
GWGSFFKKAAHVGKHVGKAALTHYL [Pleu, Pleurocidin] | 4 µg/mL
GWKKFFKKWKHVWK [GK-4] | 16 µg/mL
GWKSFFKKFKHVWK [GK-3] | 16 µg/mL
GWKSFFKKWKHVWK [GK-2] | 16 µg/mL
